Molecular target: Toll-like receptor 7 (Homo sapiens) (UniProt Q9NYK1)
Sequence (whole entry): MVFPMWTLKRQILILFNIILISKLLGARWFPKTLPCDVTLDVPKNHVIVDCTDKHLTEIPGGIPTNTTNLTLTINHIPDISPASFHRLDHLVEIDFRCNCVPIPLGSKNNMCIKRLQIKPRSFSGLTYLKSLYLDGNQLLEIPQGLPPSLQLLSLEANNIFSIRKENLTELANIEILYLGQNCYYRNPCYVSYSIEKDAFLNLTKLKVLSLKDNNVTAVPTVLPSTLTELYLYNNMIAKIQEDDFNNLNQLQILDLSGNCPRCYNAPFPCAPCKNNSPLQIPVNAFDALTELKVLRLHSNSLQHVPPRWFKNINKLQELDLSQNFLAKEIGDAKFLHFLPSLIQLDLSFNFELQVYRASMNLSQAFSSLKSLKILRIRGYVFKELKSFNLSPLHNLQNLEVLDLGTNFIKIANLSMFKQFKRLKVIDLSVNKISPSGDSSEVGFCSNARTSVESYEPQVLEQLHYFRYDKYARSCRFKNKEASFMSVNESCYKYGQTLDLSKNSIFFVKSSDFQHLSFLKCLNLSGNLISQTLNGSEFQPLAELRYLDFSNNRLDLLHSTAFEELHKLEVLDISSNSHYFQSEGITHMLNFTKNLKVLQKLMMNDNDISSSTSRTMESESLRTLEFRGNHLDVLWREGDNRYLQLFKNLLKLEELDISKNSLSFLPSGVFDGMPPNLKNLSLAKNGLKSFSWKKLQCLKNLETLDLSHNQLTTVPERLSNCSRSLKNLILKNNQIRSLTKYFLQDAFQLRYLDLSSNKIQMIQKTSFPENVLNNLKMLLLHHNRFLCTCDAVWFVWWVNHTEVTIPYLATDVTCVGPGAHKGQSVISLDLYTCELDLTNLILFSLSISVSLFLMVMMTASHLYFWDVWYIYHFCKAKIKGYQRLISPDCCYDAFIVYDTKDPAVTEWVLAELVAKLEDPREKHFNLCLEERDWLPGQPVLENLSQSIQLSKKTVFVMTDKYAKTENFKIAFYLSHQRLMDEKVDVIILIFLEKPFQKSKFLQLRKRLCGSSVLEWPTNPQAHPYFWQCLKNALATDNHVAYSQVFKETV
Assay: Agonist activity at TLR7 in human PBMC assessed as IFNalpha stimulation at 10 uM
Type: cell-based
PROPERTY LABEL: Activity (pg/mL)

Here are 4 compounds together with their reported answers.
SMILES REPRESENTATION: CCCCOc1nc(N)c2[nH]c(=O)n(CC3CCN(CCO)CC3)c2n1
Activity [pg/mL]: 4730
//
SMILES REPRESENTATION: CCC[C@H](C)Oc1nc(N)c2[nH]c(=O)n(CC3CCNCC3)c2n1
Activity [pg/mL]: 5470
//
SMILES REPRESENTATION: COCCOc1nc(N)c2[nH]c(=O)n(Cc3ccccc3)c2n1
Activity [pg/mL]: 1440
//
SMILES REPRESENTATION: CCC[C@@H](C)Oc1nc(N)c2[nH]c(=O)n(CC3CCNCC3)c2n1
Activity [pg/mL]: 6210

P = CCC[C@H](C)Oc1nc(N)c2[nH]c(=O)n(CC3CCN(CCN)CC3)c2n1
Q = CCCCOc1nc(N)c2[nH]c(=O)n(CC3CCN(CCN)CC3)c2n1
Among P and Q , whose measured Activity is the smaller figure? Kindly give the label for the entry you pick.
Q
(Q: 3040 pg/mL, P: 4420 pg/mL)

1 = CCC[C@H](C)Oc1nc(N)c2[nH]c(=O)n(CCCCCC3CCNCC3)c2n1
2 = CCC[C@H](C)Oc1nc(N)c2[nH]c(=O)n(CC3CCN(CCO)CC3)c2n1
Among 1 and 2 , whose measured Activity is the smaller figure? Kindly give the label for the entry you pick.
1

====

biological target: Toll-like receptor 7 (Homo sapiens); experiment: Agonist activity at TLR7 in human PBMC assessed as IFNalpha stimulation at 10 uM; format: cell-based
PROPERTY LABEL: Activity (pg/mL)

SMILES REPRESENTATION: CCCCOc1nc(N)c2[nH]c(=O)n(CC3CCNCC3)c2n1
TARGET SYSTEM: Toll-like receptor 7 (Homo sapiens)
RECORDED MEASUREMENT: 5900

a = COCCOc1nc(N)c2[nH]c(=O)n(CC3CCNCC3)c2n1
b = CCOCc1nc2c(N)nc3ccccc3c2n1CC(C)(C)O
Among a and b , whose measured Activity is the smaller figure? Kindly give the label for the entry you pick.
b
(b: 1410 pg/mL, a: 2240 pg/mL)

====

biological target: Toll-like receptor 7 (Homo sapiens, UniProt Q9NYK1); assay: Agonist activity at human TLR7 expressed in HEK293 cells assessed as induction of NFKappaB activity after 24 hrs by SEAP reporter gene assay; format: cell-based
PROPERTY LABEL: EC50 (µM)

SMILES REPRESENTATION: CCC[C@H](C)Oc1nc(N)c2[nH]c(=O)n(CC3CCN(CCO)CC3)c2n1
RESULT UNIT: µM
EC50: 4.06
--
SMILES REPRESENTATION: CCCCOc1nc(N)c2[nH]c(=O)n(CC3CCNCC3)c2n1
RESULT UNIT: µM
EC50: 19.8
--
SMILES REPRESENTATION: CCC[C@H](C)Oc1nc(N)c2[nH]c(=O)n(CC3CCNCC3)c2n1
RESULT UNIT: µM
EC50: 2.68
--
SMILES REPRESENTATION: CCC[C@H](C)Oc1nc(N)c2[nH]c(=O)n(CCCCCC3CCNCC3)c2n1
RESULT UNIT: µM
EC50: 0.24
--
SMILES REPRESENTATION: COCCOc1nc(N)c2[nH]c(=O)n(Cc3ccccc3)c2n1
RESULT UNIT: µM
EC50: 1.17

I = CCC[C@@H](C)Oc1nc(N)c2[nH]c(=O)n(CC3CCNCC3)c2n1
II = CCCCOc1nc(N)c2[nH]c(=O)n(CC3CCN(CCO)CC3)c2n1
Among I and II , whose measured EC50 is the smaller figure? Kindly give the label for the entry you pick.
II
(II: 23.1 µM, I: 35.8 µM)

P = CCCCOc1nc(N)c2[nH]c(=O)n(CC3CCN(CCN)CC3)c2n1
Q = CCC[C@H](C)Oc1nc(N)c2[nH]c(=O)n(CC3CCN(CCN)CC3)c2n1
Param pair: P , Q . Output: the one whose EC50 is numerically greater. Kindly give the label for the entry you pick.
P

I = CCCCNc1nc(N)c2[nH]c(=O)n(CC3CCNCC3)c2n1
II = CCCCOc1nc(N)c2[nH]c(=O)n(CCCCCC3CCNCC3)c2n1
Among I and II , whose measured EC50 is the smaller figure? Kindly give the label for the entry you pick.
II
(II: 0.45 µM, I: 40 µM)

====

The following molecules are listed with their measured fold change (FC) values.
Molecular target: Toll-like receptor 7 (Homo sapiens) (UniProt Q9NYK1)
Sequence (whole entry): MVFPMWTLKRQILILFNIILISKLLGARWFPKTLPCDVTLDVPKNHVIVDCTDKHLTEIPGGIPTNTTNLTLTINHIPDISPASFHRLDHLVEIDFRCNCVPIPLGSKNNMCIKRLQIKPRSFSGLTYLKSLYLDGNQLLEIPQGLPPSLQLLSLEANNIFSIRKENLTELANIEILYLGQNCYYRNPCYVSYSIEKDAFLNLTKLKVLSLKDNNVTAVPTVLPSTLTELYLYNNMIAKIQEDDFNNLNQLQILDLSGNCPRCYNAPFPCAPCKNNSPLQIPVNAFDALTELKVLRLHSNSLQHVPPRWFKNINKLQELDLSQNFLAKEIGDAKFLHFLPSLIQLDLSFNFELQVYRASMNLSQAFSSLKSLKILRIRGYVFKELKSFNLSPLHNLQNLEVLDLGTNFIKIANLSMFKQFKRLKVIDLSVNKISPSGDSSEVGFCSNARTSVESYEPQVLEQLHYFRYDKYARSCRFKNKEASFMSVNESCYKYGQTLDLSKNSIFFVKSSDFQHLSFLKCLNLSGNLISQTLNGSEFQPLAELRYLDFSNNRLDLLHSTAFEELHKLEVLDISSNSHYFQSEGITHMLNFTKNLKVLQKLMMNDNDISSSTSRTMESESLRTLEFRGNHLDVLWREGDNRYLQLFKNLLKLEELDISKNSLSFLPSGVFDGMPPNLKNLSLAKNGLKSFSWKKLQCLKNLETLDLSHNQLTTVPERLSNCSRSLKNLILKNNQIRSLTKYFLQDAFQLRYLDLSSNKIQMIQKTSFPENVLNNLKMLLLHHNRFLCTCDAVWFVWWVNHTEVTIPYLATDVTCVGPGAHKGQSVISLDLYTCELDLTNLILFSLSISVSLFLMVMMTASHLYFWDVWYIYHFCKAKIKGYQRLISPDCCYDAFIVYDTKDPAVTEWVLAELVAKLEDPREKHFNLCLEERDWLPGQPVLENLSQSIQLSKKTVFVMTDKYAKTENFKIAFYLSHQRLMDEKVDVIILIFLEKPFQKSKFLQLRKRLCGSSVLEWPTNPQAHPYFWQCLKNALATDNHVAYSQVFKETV
Assay: Agonist activity at TLR7 in human PBMC assessed as induction of plasmacytoid dendritic cell maturation by measuring increase in HLA-DR level at 0.1 uM after 6 hrs by flow cytometry relative to control
Type: cell-based

Here are 5 molecules together with their reported answers.
SMILES REPRESENTATION: CCCCOc1nc(N)c2[nH]c(=O)n(CCCCCC3CCNCC3)c2n1
PROPERTY LABEL: fold change (FC)
RECORDED MEASUREMENT: 1.7 to 2.3
--
SMILES REPRESENTATION: CCC[C@@H](C)Oc1nc(N)c2[nH]c(=O)n(CC3CCNCC3)c2n1
PROPERTY LABEL: fold change (FC)
RECORDED MEASUREMENT: 1.2 to 2.4
--
SMILES REPRESENTATION: CCC[C@H](C)Oc1nc(N)c2[nH]c(=O)n(CCCCCC3CCNCC3)c2n1
PROPERTY LABEL: fold change (FC)
RECORDED MEASUREMENT: 1.7 to 2.3
--
SMILES REPRESENTATION: CCC[C@H](C)Oc1nc(N)c2[nH]c(=O)n(CC3CCNCC3)c2n1
PROPERTY LABEL: fold change (FC)
RECORDED MEASUREMENT: 1.2 to 2.4
--
SMILES REPRESENTATION: CCCCOc1nc(N)c2[nH]c(=O)n(CC3CCNCC3)c2n1
PROPERTY LABEL: fold change (FC)
RECORDED MEASUREMENT: 1.2 to 2.4

What value of fold change (FC) on Toll-like receptor 7 (Homo sapiens) (UniProt Q9NYK1) does CCCCOc1nc(N)c2[nH]c(=O)n(CC3CCN(CCN)CC3)c2n1 have?
1.5 to 1.7

What value of fold change (FC) on Toll-like receptor 7 (Homo sapiens) (UniProt Q9NYK1) does CCCCOc1nc(N)c2[nH]c(=O)n(CC3CCN(CCO)CC3)c2n1 have?
1.5 to 1.7
